- System: THRa:RXRa (NR concentration 90 nM, RXRa partner concentration 90 nM)
- test_details: PBM binding z-score (relative to random genomic background probes); higher = stronger binding; sequences stand for … in GC…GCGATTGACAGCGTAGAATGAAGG
Each record's class is read off its PBM binding z-score using these ranges: bin 1 (below 2), bin 2 (2 to below 3), bin 3 (3 or more)

Solved cases (10 shown):
CCTCGGAGGCCAGAAGGTCAGAGCTGTCCGCTTT | bin 1
AGTCAAAGTTCACTAGGTAACATAAGATTCAGCT | bin 2
AGTCAAAGTTCATCTAGGCAACGTAAGATATGCT | bin 2
ACTATTAGTTGATACGAGGGCAACCGATAGGTTG | bin 2
GCTGCTAGGTCAAGTGATGGTCAGCTAAAGCTCG | bin 2
CGTACGAGGGCATGAGTTGATAGCAAATGCCGAT | bin 1
TCTTGTGGATCAAAGGTTAAGAAAGCCGAAGCCT | bin 1
ACTCGGAGGACTAAGGTCAGAGCTACGCCAGTGA | bin 3
CCTCCTGGGCCACGAAAGGTCATTGATTCAGTGA | bin 3
TAGCCTAGGTCATTCAGTGGCCAGTATAGAAAGC | bin 2

Lookup: # classify by PBM binding z-score band: `CAAACTAGGTCACGAAATGTCAAAGTCGAATGAC`
Found: bin 3

Lookup: # classify by PBM binding z-score band: `ACTAGCAGGCCAAGTTTGGGTCACTGAAACAAAG`
Found: bin 2

Lookup: # classify by PBM binding z-score band: `AGAATGAGGTTATACGGAGATCAGGGAAGAAAGT`
Found: bin 2

Lookup: # classify by PBM binding z-score band: `CCATACGGGTCACGAGGTTATAGCACGACGAGCG`
Found: bin 3

Lookup: # classify by PBM binding z-score band: `TGAATGAGGTTAACGATCAGGGAACGTGGCGTCG`
Found: bin 2

Lookup: # classify by PBM binding z-score band: `CCTGCTGGGCCATTCAGAGGTCATTGATCATATG`
Found: bin 3

Lookup: # classify by PBM binding z-score band: `ATCTCTAGGTAACCTAGTTCAGTGAATGCCGAAC`
Found: bin 1

Lookup: # classify by PBM binding z-score band: `GCTTACGGGTCATAGGTTATAGCATGAATAGAAT`
Found: bin 2

Lookup: # classify by PBM binding z-score band: `ACTAGCAGGCCAAGTCTGGGTCACTCAAACAAAG`
Found: bin 2

Lookup: # classify by PBM binding z-score band: `GCGACTGGGGCAAAGCAGGTAACCATAAGGTTGG`
Found: bin 2

Lookup: # classify by PBM binding z-score band: `CAAACTAGGTCACCGGAAGGACAAAGTCCGCATG`
Found: bin 3

====

- Tested on: PPARg DBDmut IVT, anti-PPARg (DBD mutation: PPARg1 K132A/R137A, NR concentration 270 nM)
- test_details: PBM binding z-score (relative to random genomic background probes); higher = stronger binding; sequences stand for … in GC…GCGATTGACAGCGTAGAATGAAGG
PBM binding z-score overview
Number only, please.

Examples with answers:
CCGACTGGGGCATAAGGCTACCATAAGCCAGCCC | -1.23
TCGAGTAGGTCAGGGGCATTCAGAATGGCGTCGA | -0.403
CCATACAGGTGAAAGGTAACTCAGTCTGGTACGC | 0.514

Lookup: Please indicate recorded PBM binding z-score of `CGAACTAGGTCAGAACAGGACAGTGTAGGATGAT` measured with PPARg DBDmut IVT, anti-PPARg (DBD mutation: PPARg1 K132A/R137A, NR concentration 270 nM).
Found: 2.19

Lookup: Please indicate recorded PBM binding z-score of `ATCTCTAGGTAAAGATAGATCAGTGAATGCAAAT` measured with PPARg DBDmut IVT, anti-PPARg (DBD mutation: PPARg1 K132A/R137A, NR concentration 270 nM).
Found: 1.24

Lookup: Please indicate recorded PBM binding z-score of `AGAATGAGGTAAAGATCAGGGAAACAGAATACAT` measured with PPARg DBDmut IVT, anti-PPARg (DBD mutation: PPARg1 K132A/R137A, NR concentration 270 nM).
Found: 0.935

Lookup: Please indicate recorded PBM binding z-score of `GTACCAAGGTGAATAGGACGTTGATGAGTAGGCG` measured with PPARg DBDmut IVT, anti-PPARg (DBD mutation: PPARg1 K132A/R137A, NR concentration 270 nM).
Found: 0.284

Lookup: Please indicate recorded PBM binding z-score of `ATCTGTAGGTAACCAAGTTCAGTGAATGCCGAAC` measured with PPARg DBDmut IVT, anti-PPARg (DBD mutation: PPARg1 K132A/R137A, NR concentration 270 nM).
Found: 0.924

Lookup: Please indicate recorded PBM binding z-score of `CGTCCAAGATCAGCAGGTCAGTGAAAGCGACGTG` measured with PPARg DBDmut IVT, anti-PPARg (DBD mutation: PPARg1 K132A/R137A, NR concentration 270 nM).
Found: -0.238

Lookup: Please indicate recorded PBM binding z-score of `TCTGCTGGGTCAGTTGGTCAGCTAACGAGCTGCC` measured with PPARg DBDmut IVT, anti-PPARg (DBD mutation: PPARg1 K132A/R137A, NR concentration 270 nM).
Found: -0.161

Lookup: Please indicate recorded PBM binding z-score of `AGAACGAGCGCAATGAGTTGATAGCACGGGTGGC` measured with PPARg DBDmut IVT, anti-PPARg (DBD mutation: PPARg1 K132A/R137A, NR concentration 270 nM).
Found: -0.552

Lookup: Please indicate recorded PBM binding z-score of `CGATCGAGGGCATGAGTTGATAGCAAATGCCGAT` measured with PPARg DBDmut IVT, anti-PPARg (DBD mutation: PPARg1 K132A/R137A, NR concentration 270 nM).
Found: -0.163

Lookup: Please indicate recorded PBM binding z-score of `TCTATTAGTTGATTAGGGGAACCGAAACAGCGGA` measured with PPARg DBDmut IVT, anti-PPARg (DBD mutation: PPARg1 K132A/R137A, NR concentration 270 nM).
Found: 1.48

Lookup: Please indicate recorded PBM binding z-score of `TCGAGTAGGTTACCAATGGGGCATTCCGCTTTCT` measured with PPARg DBDmut IVT, anti-PPARg (DBD mutation: PPARg1 K132A/R137A, NR concentration 270 nM).
Found: -0.0752

====

PBM binding z-score overview
- System: VDR:RXRa (NR concentration 270 nM, RXRa partner concentration 90 nM)
- test_details: PBM binding z-score (relative to random genomic background probes); higher = stronger binding; sequences stand for … in GC…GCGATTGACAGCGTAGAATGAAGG
Number only, please.

Examples with answers:
GCTCGGAGGACAAGGCCAGAGCTTTGTCCGTAGA | -1.03
ATCTCTAGGTAAATATAGTTCAGTGAATGCAAAT | 1.44

Lookup: Answer with the recorded PBM binding z-score of `GGAACGAGGGCATTCGAGTTGACAGCATGGCGAT` only.
Found: 3.41

Lookup: Answer with the recorded PBM binding z-score of `CAAACTAGGTCACCGGAAGGTCAAACTCCGCATG` only.
Found: 6.17

Lookup: Answer with the recorded PBM binding z-score of `GCGAGTGGGGCATCAGCAGGTTACCATAACTTAA` only.
Found: 0.049

Lookup: Answer with the recorded PBM binding z-score of `GCGACTGGGGCAAAGGAGGTTACCATAAGGTTGG` only.
Found: 1.26

Lookup: Answer with the recorded PBM binding z-score of `CCGACTGGGGCATAAGTTTACCATAAGCCAGCCC` only.
Found: -0.462

====

- Test system: RARa homodimer (NR concentration 270 nM)
- test_details: PBM binding z-score (relative to random genomic background probes); higher = stronger binding; sequences stand for … in GC…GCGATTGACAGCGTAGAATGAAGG
measured_endpoint: PBM binding z-score

Examples with answers:
ACTATTAGTTAAGACGAGGGCAACCGATAGGTTG | 1.02
CGAACTAGGTCATCCAGGACATTGAATACATTGA | 1.01

Lookup: Answer with the recorded PBM binding z-score of `ATCTCTAGGTAAGACTAAGTTCAGTGAAGAACGC` only.
Found: 0.975

====

- Test system: RARa homodimer (NR concentration 270 nM)
- test_details: PBM binding z-score (relative to random genomic background probes); higher = stronger binding; sequences stand for … in GC…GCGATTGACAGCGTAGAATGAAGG
measured_endpoint: PBM binding z-score
Number only, please.

Examples with answers:
TCATATAGGTAAAAGGTGAAAATCGGTGTGGTAA | 1.48
CCTACTGGGCCACGAAACGTCATTGATTCAGTGA | -0.363
CGAACTAGGTCATCCAGGACAGTGAATACATTGA | 0.896
CCTACCGGGCCAAGGTCATTGATCAGTCAAAGCA | 0.296
CCTAGGTGGTCAGGAGGTCACACACCGGATATGA | 1.85
GCAGACAGGTGAAACGCAGGTAACTCATGGTGGC | -0.93
ATCTCTAGGTAACCAAGTTCAGTGAATGCCGAAC | 0.575
TGTCAAAGTTCAAAGGTAACATAAGTATCCACAC | 1.65
ATATGTAGGTTACATCCGGGTCATTCATGCTATG | 1.2
CCTATTGGGCCAAAAAGGTCATTGATGCCGATAA | 1.26

Lookup: Answer with the recorded PBM binding z-score of `CGAACTAGGTCATTGACAGGATAGTGAATAGTAA` only.
Found: 0.385

Lookup: Answer with the recorded PBM binding z-score of `AATCCAGGGTCATCGTAGGCCAGAGTACGCACAG` only.
Found: 1.2

Lookup: Answer with the recorded PBM binding z-score of `ACTAACGGGTCAACGAGGTTATAGCACGCGTATA` only.
Found: 0.559
